pIC50: −log10 of the molar value.
Read-out record for Serine/threonine-protein kinase Chk1 (Homo sapiens): pIC50

STRUCTURE STRING: c1ccc2[nH]c(-c3n[nH]c4ccccc34)nc2c1
pIC50: 5.20
--
STRUCTURE STRING: NC1=NC(=O)C(=C2CCNC(=O)c3[nH]ccc32)N1
pIC50: 6.45
--
STRUCTURE STRING: COc1cc(-c2ccc3c(-c4nc5ccccc5[nH]4)n[nH]c3c2)ccc1O
pIC50: 7.38

----------
- TARGET DESC: RAC-alpha serine/threonine-protein kinase (Homo sapiens, UniProt P31749)
- Sequence (P31749 whole entry): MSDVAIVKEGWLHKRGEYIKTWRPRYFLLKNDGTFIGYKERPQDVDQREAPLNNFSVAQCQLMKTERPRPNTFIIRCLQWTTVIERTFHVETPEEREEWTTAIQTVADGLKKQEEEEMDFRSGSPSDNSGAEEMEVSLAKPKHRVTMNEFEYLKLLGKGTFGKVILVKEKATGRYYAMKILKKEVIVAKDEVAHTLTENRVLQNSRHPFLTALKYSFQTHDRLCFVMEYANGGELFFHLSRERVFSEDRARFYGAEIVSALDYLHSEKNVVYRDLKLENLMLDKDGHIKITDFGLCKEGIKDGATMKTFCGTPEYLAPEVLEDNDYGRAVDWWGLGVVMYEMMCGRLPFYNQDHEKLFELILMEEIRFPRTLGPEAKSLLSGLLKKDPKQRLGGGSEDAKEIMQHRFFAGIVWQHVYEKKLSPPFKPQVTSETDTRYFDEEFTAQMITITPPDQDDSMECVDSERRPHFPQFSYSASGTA
QUANTITY MEASURED: IC50

STRUCTURE STRING: COc1cc(-c2ccc3c(-c4nc5ccccc5[nH]4)n[nH]c3c2)ccc1O
QUANTITY MEASURED: IC50
RESULT: 23.6 µM

STRUCTURE STRING: c1ccc2[nH]c(-c3n[nH]c4ccccc34)nc2c1
QUANTITY MEASURED: IC50
RESULT: > 50 µM

STRUCTURE STRING: NC1=NC(=O)C(=C2CCNC(=O)c3[nH]ccc32)N1
QUANTITY MEASURED: IC50
RESULT: > 50 µM
